- assayed system: T1, recombinant cynomolgus CD33 protein (NovoProtein) (cynomolgus)
- T1 construct: Bought protein; also called cyno CD33
- T1 sequence (chain, as listed by the source limits assumed): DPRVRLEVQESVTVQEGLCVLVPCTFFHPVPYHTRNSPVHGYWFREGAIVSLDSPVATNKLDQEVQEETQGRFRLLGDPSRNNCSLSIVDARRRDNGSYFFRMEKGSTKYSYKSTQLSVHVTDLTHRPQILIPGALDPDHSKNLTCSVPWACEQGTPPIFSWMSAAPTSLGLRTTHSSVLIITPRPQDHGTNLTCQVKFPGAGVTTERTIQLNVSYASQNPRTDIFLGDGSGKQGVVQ
- method description: ELISA, plate coated with recombinant CD33
observed property: EC50 (nM)

1) anti-CD33 antibody 6C7H52 (antibody, V domains shown, VH/VL only) VH: EVQLVESGGGLVQPGGSLRLSCAASGFTFSEYAMLWVRQAPGKGLEWVGEIRLKSNNYVTNYAASVKGRFTISRDDSKNSVYLQMNSLKTEDTGVYYCTRAGYYVPFAYWGQGTLVTVSS VL: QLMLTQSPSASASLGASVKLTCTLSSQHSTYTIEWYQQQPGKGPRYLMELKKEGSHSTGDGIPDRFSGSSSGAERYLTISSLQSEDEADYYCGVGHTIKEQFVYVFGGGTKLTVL
1.7
2) anti-CD33 antibody 6C7H46 (antibody, V domains shown, VH/VL only) VH: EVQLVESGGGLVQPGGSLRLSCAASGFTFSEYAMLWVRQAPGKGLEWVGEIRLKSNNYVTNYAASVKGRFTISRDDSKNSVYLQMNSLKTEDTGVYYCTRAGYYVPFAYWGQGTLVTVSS VL: QPMLTQSPSASASLGASVKLTCTLSSQHSTYTIEWYQQQPGKGPRYLMELKKEGSHSTGDGIPDRFSGSSSGAERYLTISSLQSEDEADYYCGVGLTIKEQFVYVFGGGTKLTVL
16.8
3) anti-CD33 antibody 6C7H36 (antibody, V domains shown, VH/VL only) VH: EVQLVESGGGLVQPGGSLRLSCAASGFTFSEYAMLWVRQAPGKGLEWVGEIRLKSNNYVTNYAASVKGRFTISRDDSKNSVYLQMNSLKTEDTGVYYCTRAGYYVPFTYWGQGTLVTVSS VL: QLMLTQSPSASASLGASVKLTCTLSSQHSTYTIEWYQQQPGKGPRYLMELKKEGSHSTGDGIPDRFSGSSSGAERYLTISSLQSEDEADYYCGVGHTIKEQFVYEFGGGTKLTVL
4
4) anti-CD33 6C7 chimeric antibody (antibody, V domains shown, detected with anti-human IgG; also called 6C7 Chimeric Ab) VH: EVKLEESGGGLVQPGGSMKLSCVGSGFTFSNYCMNWVRQSPEKGLEWVAEIRLKSNNYVTNYVESVKGRFTISRDDSKSRVYLQMNNLRGEDTGFYYCTRDGYYVPFAYWGQGTLVTVSA VL: QLVLTQSSSASFSLGASAKLTCTLSSQHSTYTIEWYQQQPLKPPKYVMELKKDGSHSTGDGIPDRFSGSSSGADRYLSISNIQPEDEAIYICGVGDTIKEQFVYVFGGGTKVTVL
2.96
